These data points were gathered from patent US9527876B2.

assay method text: Rat pharmacokinetics after intravenous injection (LC-MS/MS of plasma)
measurement parameters: rat, plasma, iv, 2 mg/kg
measured parameter: clearance (mL/min/kg)

[
  {
    "molecule": "COc1ccc(CNc2nc(N3CC4CC4C3)ncc2C(=O)N[C@H]2CC[C@H](O)CC2)cc1C (stereo partly shown) [Compound 9-B]",
    "reported measurement": 13
  }
]

----------
assay method text: in vivo
measurement parameters: rat, iv, 2 mg/kg
measured parameter: Vd (L/kg)

[
  {
    "compound": "COc1ccc(CN=c2[nH]c(N3CCC[C@H]3CO)ncc2C(=O)NCc2ncccn2)cc1Cl [Avanafil]",
    "measured parameter": "Vd",
    "unit abbreviation": "L/kg",
    "reported measurement": 3.56
  }
]

----------
assay method text: Rat pharmacokinetics after intravenous injection (LC-MS/MS of plasma)
measurement parameters: rat, plasma, iv, 1 mg/kg, Concentration of Compound 1 in rat body, Rat 3, IV 1 mg/kg, 0.083 h, Rat 3

[
  {
    "molecule": "COc1ccc(CNc2nc(N3CC4CC4C3)ncc2C(=O)N[C@H]2CC[C@H](OP(=O)([O-])[O-])CC2)cc1Cl.[Na+].[Na+] (stereo partly shown) [Compound 1, phosphate disodium salt]",
    "concentration at 0.083 h (ng/mL)": 151
  }
]

----------
assay method text: Solubility of Compound Q in buffer solutions of different pH (HPLC)
Assay type: physicochemical
measurement parameters: aqueous buffer, thermodynamic from solid; buffer solution pH 9; 1 mg in 1 mL; read-out: Measured concentration (solubility)

[
  {
    "compound": "COc1ccc(CNc2nc(N3CC4CC4C3)ncc2C(=O)N[C@H]2CC[C@H](O)CC2)cc1Cl (stereo partly shown)",
    "unit abbreviation": "µg/mL",
    "solubility at 5 min": 0.128
  }
]

----------
assay method text: Rat pharmacokinetics after intravenous injection (LC-MS/MS of plasma)
measurement parameters: rat, plasma, iv, 1 mg/kg, Concentration of Compound 1 in rat body, Mean, IV 1 mg/kg, 0.083 h, mean of 3 rats

[
  {
    "molecule": "COc1ccc(CNc2nc(N3CC4CC4C3)ncc2C(=O)N[C@H]2CC[C@H](OP(=O)([O-])[O-])CC2)cc1Cl.[Na+].[Na+] (stereo partly shown) [Compound 1, phosphate disodium salt]",
    "unit abbreviation": "ng/mL",
    "concentration at 0.083 h": 165
  }
]
